tested on: L1210 leukemia ip in BDF1 mice, survival T/C; experiment: NCI In Vivo Anticancer Drug Screen. Data for tumor model L1210 Leukemia (intraperitoneal) in B6D2F1 (BDF1) mice; details: endpoint: mean survival time; dose: 400.0 mg/kg/injection; schedule: Q01DX001 (ip); vehicle: Klucel (hydroxypropylcellulose) (HPC); higher = longer survival
Toxic doses and inconclusive results are not listed.
Consider the following compounds and their measured T/C readings.

Consider the compound N#C/C(N)=C(/C#N)N=Cc1ccccc1 . State its measured T/C.
98 % of control

---

tested on: L1210 leukemia ip in BDF1 mice, survival T/C; experiment: NCI In Vivo Anticancer Drug Screen. Data for tumor model L1210 Leukemia (intraperitoneal) in B6D2F1 (BDF1) mice; settings: endpoint: mean survival time; dose: 100.0 mg/kg/injection; schedule: Q04DX003 (ip); vehicle: saline with Tween-80; higher = longer survival
Inconclusive results and toxic doses are left out.
parameter-measured: T/C

Below, each entry is followed by its recorded T/C result.
{"columns": ["molecule", "assay-value"],
 "data": [
  ["CC1=CCCCC1Br (stereo unspecified)", "96 % of control"],
  ["CCCCOP(=O)(Cc1cc(C)cc(C)c1)OCCCC", "87 % of control"]
]}

Consider the molecule N#CC(C#N)=Cc1cc2c3c(c1)CCCN3CCC2 . State its measured T/C.
109 % of control

Consider the molecule O=C(Nc1ccc(F)cc1)Nc1ccc(Cl)cc1[N+](=O)[O-] . State its measured T/C.
100 % of control

Consider the molecule CCNC(=O)Nc1ccc(C(=O)O)c(O)c1 (tested in a mixture with another compound) . State its measured T/C.
97 % of control

Consider the molecule CC(=O)C(C)(CCC#N)CCC#N . State its measured T/C.
108 % of control

Consider the molecule N#C/C(=C\c1c[nH]c2ccccc12)C(N)=O . State its measured T/C.
93 % of control

Consider the molecule C/C=C(/Cl)c1c(C)cc(C)cc1C . State its measured T/C.
101 % of control

Consider the molecule CCCCOc1ccc(NC(=O)CCl)cc1 . State its measured T/C.
89 % of control
